- test system: T1, human EphB3 (Homo sapiens, UniProt P54753)
- T1 construct: a protein of the extracellular region of each human Eph receptor fused with the SEAP protein and the His tag; made in house; host or cells: Expi293F cells
- T1 sequence (P54753 34-559 limits assumed): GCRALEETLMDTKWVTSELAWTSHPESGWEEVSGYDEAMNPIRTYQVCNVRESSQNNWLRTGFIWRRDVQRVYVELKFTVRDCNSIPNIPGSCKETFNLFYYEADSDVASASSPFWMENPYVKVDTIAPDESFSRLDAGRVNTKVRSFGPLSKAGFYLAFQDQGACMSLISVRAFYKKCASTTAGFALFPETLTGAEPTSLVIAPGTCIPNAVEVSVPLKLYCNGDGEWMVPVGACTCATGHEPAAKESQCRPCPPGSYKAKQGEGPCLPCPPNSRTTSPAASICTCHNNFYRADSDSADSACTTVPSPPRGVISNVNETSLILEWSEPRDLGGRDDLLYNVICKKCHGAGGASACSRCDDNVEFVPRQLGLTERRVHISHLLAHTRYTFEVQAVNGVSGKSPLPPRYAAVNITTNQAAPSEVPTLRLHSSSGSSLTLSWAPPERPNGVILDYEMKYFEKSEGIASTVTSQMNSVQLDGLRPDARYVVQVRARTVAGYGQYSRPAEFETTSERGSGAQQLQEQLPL
- assay procedure: Selectivity ELISA of humanized antibodies for human Eph receptor
- Format: binding
- setup conditions: coated protein 1 nM
Below, each of the molecules is paired with its reported hEphB3-SEAP-: absorbance at 450 nm, percentage with respect to hEphA4-SEAP-His as 100% value.
Please reply with the bare figure in % and do not write the unit itself.

| molecule | assay result |
| --- | --- |
| 83 (antibody, V domains shown, constant regions without entry; synthetic humanized antibody light chain variable region sequence; synthetic humanized antibody heavy chain variable region sequence) VL: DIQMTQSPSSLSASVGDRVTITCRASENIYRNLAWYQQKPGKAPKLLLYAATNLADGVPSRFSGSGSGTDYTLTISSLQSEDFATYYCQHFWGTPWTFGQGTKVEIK VH: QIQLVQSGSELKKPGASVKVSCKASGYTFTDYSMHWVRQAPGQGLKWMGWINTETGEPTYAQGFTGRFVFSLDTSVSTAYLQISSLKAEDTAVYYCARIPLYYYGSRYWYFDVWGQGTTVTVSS | 5.7 |

Next molecule, please.
Q: Give recorded hEphB3-SEAP-: absorbance at 450 nm, percentage with respect to hEphA4-SEAP-His as 100%. 136 (antibody, V domains shown, synthetic humanized antibody heavy chain variable region sequence; synthetic humanized antibody light chain variable region sequence) VH: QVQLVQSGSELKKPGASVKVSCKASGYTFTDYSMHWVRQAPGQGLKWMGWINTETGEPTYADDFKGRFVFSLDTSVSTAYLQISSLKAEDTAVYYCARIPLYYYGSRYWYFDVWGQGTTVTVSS VL: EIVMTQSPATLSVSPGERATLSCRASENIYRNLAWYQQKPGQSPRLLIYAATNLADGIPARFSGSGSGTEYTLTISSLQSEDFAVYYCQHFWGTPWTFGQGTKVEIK
Ans: 5.5

Where these numbers come from: patent US10428140B2
